Below, each entry is listed alongside its reported AC50.
# assayed-system: Alpha-1A adrenergic receptor (Homo sapiens, UniProt P35348); note: assay procedure not described here
# Sequence (P35348 whole entry): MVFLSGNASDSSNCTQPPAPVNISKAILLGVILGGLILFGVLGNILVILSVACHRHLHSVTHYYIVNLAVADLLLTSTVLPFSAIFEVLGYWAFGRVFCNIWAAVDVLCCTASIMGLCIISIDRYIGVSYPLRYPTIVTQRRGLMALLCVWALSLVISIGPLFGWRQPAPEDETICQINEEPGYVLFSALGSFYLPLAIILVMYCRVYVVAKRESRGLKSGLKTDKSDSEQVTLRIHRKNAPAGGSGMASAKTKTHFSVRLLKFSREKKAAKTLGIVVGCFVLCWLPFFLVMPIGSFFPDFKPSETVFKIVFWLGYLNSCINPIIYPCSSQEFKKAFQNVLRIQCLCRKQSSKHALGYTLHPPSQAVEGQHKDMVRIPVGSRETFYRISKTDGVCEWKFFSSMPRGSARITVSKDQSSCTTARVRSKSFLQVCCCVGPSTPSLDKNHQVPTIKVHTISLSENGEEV

Consider the worked cases shown below.
[
  {
    "compound": "CCCCNc1ccc(C(=O)OCCN(C)C)cc1",
    "assayed-system": "Alpha-1A adrenergic receptor (Homo sapiens, UniProt P35348)",
    "result": "> 10 µM"
  },
  {
    "compound": "CC[C@@H](CO)NC(=O)[C@@H]1C=C2c3cccc4[nH]cc(c34)C[C@H]2N(C)C1",
    "assayed-system": "Alpha-1A adrenergic receptor (Homo sapiens, UniProt P35348)",
    "result": "12 µM"
  },
  {
    "compound": "C#C[C@]1(O)CC[C@H]2[C@@H]3CCc4cc(OC)ccc4[C@H]3CC[C@@]21C",
    "assayed-system": "Alpha-1A adrenergic receptor (Homo sapiens, UniProt P35348)",
    "result": "> 30 µM"
  }
]

Req: Reported AC50 for CCCN(CCC)CCc1cccc2c1CC(=O)N2 : what is it?
Resp: > 10 µM

Req: Reported AC50 for CCn1cc(C(=O)O)c(=O)c2cc(F)c(N3CCNCC3)nc21 : what is it?
Resp: > 10 µM

Req: Reported AC50 for Cc1cnc(NC(=O)C2=C(O)c3ccccc3S(=O)(=O)N2C)s1 : what is it?
Resp: > 10 µM

Req: Reported AC50 for NC(=O)c1ncn([C@@H]2O[C@H](CO)[C@@H](O)[C@H]2O)n1 : what is it?
Resp: > 10 µM

Req: Reported AC50 for CC1(C)S[C@@H]2[C@H](NC(=O)[C@H](N)c3ccc(O)cc3)C(=O)N2[C@H]1C(=O)O : what is it?
Resp: > 10 µM

Req: Reported AC50 for CC(=O)/N=c1/sc(S(N)(=O)=O)nn1C [METHAZOLAMIDE] : what is it?
Resp: > 10 µM

Req: Reported AC50 for Nc1ccn([C@@H]2O[C@H](CO)[C@@H](O)C2(F)F)c(=O)n1 : what is it?
Resp: > 10 µM

Req: Reported AC50 for COc1ccc(/C=C/C(=O)Nc2ccccc2C(=O)O)cc1OC : what is it?
Resp: 18 µM

Req: Reported AC50 for Clc1ccc2c(c1)C(c1ccccc1)=NCc1nncn1-2 : what is it?
Resp: > 10 µM

Req: Reported AC50 for [H]/N=C(/N)N[C@H]1[C@H](O)[C@@H](O)[C@H](O[C@@H]2O[C@@H](C)[C@](O)(C=O)[C@H]2O[C@@H]2O[C@@H](CO)[C@H](O)[C@@H](O)[C@@H]2NC)[C@@H](N/C(N)=N\[H])[C@@H]1O : what is it?
Resp: > 10 µM

Req: Reported AC50 for CC(=O)OCC(CCn1cnc2cnc(N)nc21)COC(C)=O : what is it?
Resp: 11.6 µM

Req: Reported AC50 for CC1(C)O[C@@H]2[C@@H](CO[C@@]3(COS(N)(=O)=O)OC(C)(C)O[C@@H]23)O1 [TOPIRAMATE] : what is it?
Resp: > 10 µM

Req: Reported AC50 for CC(=O)O[C@H]1C[C@@H]2CC[C@@H]3[C@H](CC[C@@]4(C)[C@H]3C[C@H]([N+]3(C)CCCCC3)[C@@H]4OC(C)=O)[C@@]2(C)C[C@@H]1[N+]1(C)CCCCC1 : what is it?
Resp: > 10 µM

Req: Reported AC50 for COC(=O)N[C@@H](C)CNc1nccc(-c2cn(C(C)C)nc2-c2cc(Cl)cc(NS(C)(=O)=O)c2F)n1 : what is it?
Resp: > 30 µM

Req: Reported AC50 for CC(=O)S[C@@H]1CC2=CC(=O)CC[C@]2(C)[C@H]2CC[C@@]3(C)[C@@H](CC[C@@]34CCC(=O)O4)[C@H]12 : what is it?
Resp: 10.4 µM

Req: Reported AC50 for COC(=O)[C@H](c1ccccc1Cl)N1CCc2sccc2C1 : what is it?
Resp: > 10 µM

Req: Reported AC50 for CC(=O)Nc1c(I)c(C(=O)N[C@H]2C(O)O[C@H](CO)[C@@H](O)[C@@H]2O)c(I)c(N(C)C(C)=O)c1I (stereo partly specified) [METRIZAMIDE] : what is it?
Resp: > 10 µM

Req: Reported AC50 for O=c1oc2ccccc2c(O)c1Cc1c(O)c2ccccc2oc1=O : what is it?
Resp: > 10 µM
